- assay.text: Phase 1a single ascending dose study: UV-4 plasma concentrations and PK parameters (LC-MS/MS, noncompartmental)
- Format: in vivo
- protocol.conditions: both sexes, human, plasma, po, 90 mg, 90 mg single oral dose; Ar Mean; read-out: Cmax
measured.metric: Cmax (ng/mL)
Form entry: value (ng/mL) — number only.

For the compound COCCCCCCCCCN1C[C@H](O)[C@@H](O)[C@H](O)[C@H]1CO , what Cmax is on record?
946

---

- assay.text: Phase 1a single ascending dose study: UV-4 plasma concentrations and PK parameters (LC-MS/MS, noncompartmental)
- Type: in vivo
- protocol.conditions: both sexes, human, plasma, po, 720 mg, 720 mg single oral dose; Geo Mean; read-out: Cmax
measured.metric: Cmax (ng/mL)
Form entry: value (ng/mL) — number only.

For the compound COCCCCCCCCCN1C[C@H](O)[C@@H](O)[C@H](O)[C@H]1CO , what Cmax is on record?
9760

---

- assay.text: Phase 1a single ascending dose study: UV-4 plasma concentrations and PK parameters (LC-MS/MS, noncompartmental)
- Format: in vivo
- protocol.conditions: both sexes, human, plasma, po, 720 mg, 720 mg single oral dose; Arithmetic Mean; read-out: AUC(0-inf)
measured.metric: AUC(0-inf) (ng·h/mL)
Form entry: value (ng·h/mL) — number only.

For the molecule COCCCCCCCCCN1C[C@H](O)[C@@H](O)[C@H](O)[C@H]1CO , what AUC(0-inf) is on record?
32900

---

- assay.text: Phase 1a single ascending dose study: UV-4 plasma concentrations and PK parameters (LC-MS/MS, noncompartmental)
- Type: in vivo
- protocol.conditions: both sexes, human, plasma, po, 720 mg, 720 mg single oral dose; Ar Mean; read-out: t1/2 (converted)
measured.metric: half-life (h)
Form entry: value (h) — number only.

For the molecule COCCCCCCCCCN1C[C@H](O)[C@@H](O)[C@H](O)[C@H]1CO [UV-4, N-(9’-methoxynonyl)-1-deoxynojirimycin] , what half-life is on record?
8.2

---

- assay.text: Phase 1a single ascending dose study: UV-4 plasma concentrations and PK parameters (LC-MS/MS, noncompartmental)
- Type: in vivo
- protocol.conditions: both sexes, human, plasma, po, 1000 mg, 1000 mg single oral dose; Ar Mean; read-out: Vz/F
measured.metric: Vd/F (L)
Form entry: value (L) — number only.

For the molecule COCCCCCCCCCN1C[C@H](O)[C@@H](O)[C@H](O)[C@H]1CO , what Vd/F is on record?
299

---

- assay.text: Phase 1a single ascending dose study: UV-4 plasma concentrations and PK parameters (LC-MS/MS, noncompartmental)
- Assay type: in vivo
- protocol.conditions: both sexes, human, plasma, po, 1000 mg, 1000 mg single oral dose; Geo Mean; read-out: AUC(0-8)
measured.metric: AUC(0-t)
The reply must contain the numeric value and, after it, the unit.

For the molecule COCCCCCCCCCN1C[C@H](O)[C@@H](O)[C@H](O)[C@H]1CO , what AUC(0-t) is on record?
38500 ng·h/mL

---

- assay.text: Phase 1a single ascending dose study: UV-4 plasma concentrations and PK parameters (LC-MS/MS, noncompartmental)
- Type: in vivo
- protocol.conditions: both sexes, human, plasma, po, 360 mg, 360 mg single oral dose; Geometric Mean; read-out: AUC(0-inf)
measured.metric: AUC(0-inf) (ng·h/mL)
Form entry: value (ng·h/mL) — number only.

For the molecule COCCCCCCCCCN1C[C@H](O)[C@@H](O)[C@H](O)[C@H]1CO , what AUC(0-inf) is on record?
13700

---

- assay.text: Phase 1a single ascending dose study: UV-4 plasma concentrations and PK parameters (LC-MS/MS, noncompartmental)
- Type: in vivo
- protocol.conditions: both sexes, human, plasma, po, 90 mg, 90 mg single oral dose; Geometric Mean; read-out: AUC(0-inf)
measured.metric: AUC(0-inf)

For the compound COCCCCCCCCCN1C[C@H](O)[C@@H](O)[C@H](O)[C@H]1CO [UV-4, N-(9’-methoxynonyl)-1-deoxynojirimycin] , what AUC(0-inf) is on record?
3700 ng·h/mL

---

- assay.text: Phase 1a single ascending dose study: UV-4 in pooled urine, urinary recovery and renal clearance
- Type: in vivo, human
- protocol.conditions: both sexes, human, urine and plasma, po, 3 mg, 3 mg single oral dose; Ar Mean
measured.metric: CL renal (mL/min)
Form entry: value (mL/min) — number only.

For the molecule COCCCCCCCCCN1C[C@H](O)[C@@H](O)[C@H](O)[C@H]1CO , what CL renal is on record?
242

---

- assay.text: Phase 1a single ascending dose study: UV-4 plasma concentrations and PK parameters (LC-MS/MS, noncompartmental)
- Assay type: in vivo
- protocol.conditions: both sexes, human, plasma, po, 360 mg, 360 mg single oral dose; Ar Mean; read-out: Cmax
measured.metric: Cmax (ng/mL)
Form entry: value (ng/mL) — number only.

For the compound COCCCCCCCCCN1C[C@H](O)[C@@H](O)[C@H](O)[C@H]1CO , what Cmax is on record?
4570

---

- assay.text: Phase 1a single ascending dose study: UV-4 plasma concentrations and PK parameters (LC-MS/MS, noncompartmental)
- Format: in vivo
- protocol.conditions: both sexes, human, plasma, po, 180 mg, 180 mg single oral dose; Geo Mean; read-out: t1/2 (converted)
measured.metric: half-life (h)
Form entry: value (h) — number only.

For the compound COCCCCCCCCCN1C[C@H](O)[C@@H](O)[C@H](O)[C@H]1CO , what half-life is on record?
8.7

---

- assay.text: Phase 1a single ascending dose study: UV-4 plasma concentrations and PK parameters (LC-MS/MS, noncompartmental)
- Assay type: in vivo
- protocol.conditions: both sexes, human, plasma, po, 360 mg, 360 mg single oral dose; Geo Mean; read-out: Cmax
measured.metric: Cmax (ng/mL)
Form entry: value (ng/mL) — number only.

For the compound COCCCCCCCCCN1C[C@H](O)[C@@H](O)[C@H](O)[C@H]1CO , what Cmax is on record?
4490

---

- assay.text: Phase 1a single ascending dose study: UV-4 plasma concentrations and PK parameters (LC-MS/MS, noncompartmental)
- Format: in vivo
- protocol.conditions: both sexes, human, plasma, po, 180 mg, 180 mg single oral dose; Geometric Mean; read-out: AUC(0-inf)
measured.metric: AUC(0-inf) (µg·h/mL)
Form entry: value (µg·h/mL) — number only.

For the compound COCCCCCCCCCN1C[C@H](O)[C@@H](O)[C@H](O)[C@H]1CO [UV-4, N-(9’-methoxynonyl)-1-deoxynojirimycin] , what AUC(0-inf) is on record?
7.09

---

- assay.text: Phase 1a single ascending dose study: UV-4 plasma concentrations and PK parameters (LC-MS/MS, noncompartmental)
- Assay type: in vivo
- protocol.conditions: both sexes, human, plasma, po, 30 mg, 30 mg single oral dose; Ar Mean; read-out: AUC(0-8)
measured.metric: AUC(0-t) (ng·h/mL)
Form entry: value (ng·h/mL) — number only.

For the molecule COCCCCCCCCCN1C[C@H](O)[C@@H](O)[C@H](O)[C@H]1CO [UV-4B] , what AUC(0-t) is on record?
901

---

- assay.text: Phase 1a single ascending dose study: UV-4 plasma concentrations and PK parameters (LC-MS/MS, noncompartmental)
- Type: in vivo
- protocol.conditions: both sexes, human, plasma, po, 30 mg, 30 mg single oral dose; Ar Mean; read-out: t1/2 (converted)
measured.metric: half-life
The reply must contain the numeric value and, after it, the unit.

For the compound COCCCCCCCCCN1C[C@H](O)[C@@H](O)[C@H](O)[C@H]1CO , what half-life is on record?
10 h

---

- assay.text: Phase 1a single ascending dose study: UV-4 plasma concentrations and PK parameters (LC-MS/MS, noncompartmental)
- Type: in vivo
- protocol.conditions: both sexes, human, plasma, po, 180 mg, 180 mg single oral dose; Ar Mean; read-out: Cmax
measured.metric: Cmax
The reply must contain the numeric value and, after it, the unit.

For the molecule COCCCCCCCCCN1C[C@H](O)[C@@H](O)[C@H](O)[C@H]1CO , what Cmax is on record?
2150 ng/mL

---

- assay.text: Phase 1a single ascending dose study: UV-4 plasma concentrations and PK parameters (LC-MS/MS, noncompartmental)
- Assay type: in vivo
- protocol.conditions: both sexes, human, plasma, po, 720 mg, 720 mg single oral dose; median; read-out: tmax
measured.metric: Tmax (min)
Form entry: value (min) — number only.

For the molecule COCCCCCCCCCN1C[C@H](O)[C@@H](O)[C@H](O)[C@H]1CO [UV-4, N-(9’-methoxynonyl)-1-deoxynojirimycin] , what Tmax is on record?
48

---

- assay.text: Phase 1a single ascending dose study: UV-4 plasma concentrations and PK parameters (LC-MS/MS, noncompartmental)
- Assay type: in vivo
- protocol.conditions: both sexes, human, plasma, po, 3 mg, 3 mg single oral dose; Arithmetic Mean; read-out: AUC(0-inf)
measured.metric: AUC(0-inf) (ng·h/mL)
Form entry: value (ng·h/mL) — number only.

For the molecule COCCCCCCCCCN1C[C@H](O)[C@@H](O)[C@H](O)[C@H]1CO , what AUC(0-inf) is on record?
95.6
